Data origin, for the record: paper PMC11582101

test system: U2OS cells; details: human, 10 µM
quantity: normalized healthy cell count

- O=C(/C=C/c1ccc(O)c(O)c1)OCCc1ccccc1: around 75%
- CC(C)(C)c1cc(/C=C(\C#N)C(N)=S)cc(C(C)(C)C)c1O: around 75%
- N#C/C(=C\c1ccc(O)c(O)c1)C(=O)NCCCCc1ccccc1: around 75%

====

target: 5-LO (Homo sapiens, UniProt P09917); assay: 5-LO activity in PMNL homogenates; type: biochemical; set-up: endogenous in cells; host or cells: human PMNL (polymorphonuclear leukocytes); settings: sonicated PMNL, without GSH, 20 µM AA; read-out: IC50 5-LO, PMNL homogenates
Sequence (P09917 whole entry): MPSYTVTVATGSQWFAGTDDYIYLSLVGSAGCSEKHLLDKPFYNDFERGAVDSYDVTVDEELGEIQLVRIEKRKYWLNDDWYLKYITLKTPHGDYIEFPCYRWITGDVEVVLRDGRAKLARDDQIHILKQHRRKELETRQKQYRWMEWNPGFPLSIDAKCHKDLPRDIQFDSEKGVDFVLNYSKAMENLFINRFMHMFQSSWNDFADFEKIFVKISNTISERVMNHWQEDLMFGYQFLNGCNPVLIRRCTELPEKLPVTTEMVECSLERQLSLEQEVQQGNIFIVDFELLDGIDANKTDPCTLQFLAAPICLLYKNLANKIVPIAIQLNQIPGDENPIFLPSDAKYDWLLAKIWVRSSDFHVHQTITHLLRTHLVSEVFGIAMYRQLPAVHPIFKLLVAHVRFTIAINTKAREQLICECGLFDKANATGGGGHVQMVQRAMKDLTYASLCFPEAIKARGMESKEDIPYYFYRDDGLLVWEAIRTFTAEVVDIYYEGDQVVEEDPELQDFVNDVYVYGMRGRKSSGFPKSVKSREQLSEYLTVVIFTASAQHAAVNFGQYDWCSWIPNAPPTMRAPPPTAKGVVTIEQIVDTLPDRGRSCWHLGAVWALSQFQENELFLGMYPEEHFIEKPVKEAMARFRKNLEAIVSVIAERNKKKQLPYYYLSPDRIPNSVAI
quantity: IC50

• CCC[C@H](NC(=O)/C(C#N)=C/c1cccc(Br)n1)c1ccccc1 [Degrasyn] = 890 nM
